systemUnderTest: T1, human PrRP receptor GPR10 (human, UniProt P49683 1-370)
T1 construct: whole, on cells; also called GPR10 human receptor transfected in CHO cells; human GPR10 receptor
T1 sequence (looked up): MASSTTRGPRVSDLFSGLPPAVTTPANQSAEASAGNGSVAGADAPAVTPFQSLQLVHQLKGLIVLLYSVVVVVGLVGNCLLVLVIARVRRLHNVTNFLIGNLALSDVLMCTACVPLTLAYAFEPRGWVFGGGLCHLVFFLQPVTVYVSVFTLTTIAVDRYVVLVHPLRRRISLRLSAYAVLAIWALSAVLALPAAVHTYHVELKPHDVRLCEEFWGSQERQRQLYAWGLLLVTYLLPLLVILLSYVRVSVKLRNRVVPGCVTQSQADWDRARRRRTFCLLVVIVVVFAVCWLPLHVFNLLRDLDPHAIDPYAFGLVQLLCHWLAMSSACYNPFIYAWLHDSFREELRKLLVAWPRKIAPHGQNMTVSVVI
method: competition with 125I-human PrRP31, CHO cells with human GPR10
Square brackets hold non-standard residues; d marks the D form. Ends that are not written are not given here. * marks the point of attachment. Palmitoyl = CCCCCCCCCCCCCCCC(=O)*; Nle = CCCC[C@H](N)C(=O)O
The reader will find reported % of PrRP31 values listed item by item below.
Use % as the unit, but write only the number.

Tell me the measured % of PrRP31 of Palmitoyl-SRAHQHS[Nle]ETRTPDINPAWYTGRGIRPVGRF-NH2 [analog no. 8] , please.
128

Which % of PrRP31 is reported for this binder? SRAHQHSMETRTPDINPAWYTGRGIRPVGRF-NH2 (synthetic peptide) [Rat PrRP31]
100
